This collection of values is drawn from patent US8383581B2.

Parameter: metabolised at 24 h, 2 μM. Scope: all listed entries.
experimentalProtocol: Stability of peptides in human plasma
Type: in vitro ADME
setupConditions: human, plasma, pH 7.8
Where a SMILES comes first, the peptide text is derived from it. [ ]: non-standard residue; d: D form. ξ: configuration not given here. ξBip(2'-Et-4'-OMe) = CCc1cc(OC)ccc1-c1ccc(CC(N)C(=O)O)cc1; Arg(NO2) = N=C(NCCC[C@H](N)C(=O)O)N[N+](=O)[O-]; ξαMePhe(2,6-F2) = CC(N)(Cc1c(F)cccc1F)C(=O)O; ξαMePhe(2-F) = CC(N)(Cc1ccccc1F)C(=O)O; hhPhe = N[C@@H](CCCc1ccccc1)C(=O)O; hArg = N=C(N)NCCCC[C@H](N)C(=O)O; hCit = NC(=O)NCCCC[C@H](N)C(=O)O; Nle = CCCC[C@H](N)C(=O)O; Ac5c = NC1(C(=O)O)CCCC1; Aib = CC(C)(N)C(=O)O
I only need the number, in %, no unit after it.

# compound, metabolised at 24 h, 2 μM (%)
records = [
    ("CCCC[C@H](NC(=O)[C@H](CC(C)C)NC(=O)[C@H](CCC(N)=O)NC(=O)[C@@H](NC(=O)[C@H](CCC(=O)O)NC(=O)C(C)(C)NC(=O)[C@@H](NC(=O)C(C)(C)N)C(C)C)[C@@H](C)CC)C(=O)N[C@@H](Cc1c[nH]cn1)C(=O)N[C@@H](CCC(N)=O)C(=O)N[C@@H](CCCCNC(N)=O)C(=O)NC(C)(C)C(=O)NC(C)(C)C(=O)NC(Cc1ccc(-c2ccc(OC)cc2CC)cc1)C(=O)N[C@@H](CCCc1ccccc1)C(N)=O (some centres unmarked) [Seq. ID. 790] (H-[Aib]V[Aib]EIQL[Nle]HQ[hCit][Aib][Aib][ξBip(2'-Et-4'-OMe)][hhPhe]-NH2)", 0),
]

Query compound follows.
[Q] Quick check: metabolised at 24 h, 2 μM of CCCC[C@H](NC(=O)C(C)(Cc1ccccc1F)NC(=O)[C@H](CCC(N)=O)NC(=O)[C@@H](NC(=O)[C@H](CCC(=O)O)NC(=O)C(C)(C)NC(=O)[C@@H](NC(=O)C1(N)CCCC1)C(C)C)[C@@H](C)CC)C(=O)N[C@@H](Cc1c[nH]cn1)C(=O)N[C@@H](CCC(N)=O)C(=O)N[C@@H](CCCCNC(=N)N)C(=O)NC(C)(C)C(=O)N[C@@H](CCCNC(=N)N[N+](=O)[O-])C(=O)NC(C)(Cc1c(F)cccc1F)C(N)=O (some centres unmarked) [Seq. ID. 270] (H-[Ac5c]V[Aib]EIQ[ξαMePhe(2-F)][Nle]HQ[hArg][Aib][Arg(NO2)][ξαMePhe(2,6-F2)]-NH2) ?
[A] 78
